# reported TGI; entries follow
System: MDA-MB-435
Assay: NCI tumour cell line growth inhibition, 48 h

Query for MDA-MB-435: what TGI does the record show for Cc1nn(C(=O)c2ccncc2)c2c1C(c1ccccc1O)SC(N)=N2 (centres undefined) ?
> 10 µM

* * *

System: UACC-257 melanoma
Experiment: NCI tumour cell line growth inhibition, 48 h
experimental readout: GI50

compound=COc1ccc2cc(C(=O)/C=C/c3ccccc3OC)ccc2c1 observed_result="9.78 µM"
compound="COc1ccc(/C=C2\\CCCC3=C2N=C2SC=NN2C3c2ccc(OC)c(OC)c2)cc1OC (stereo not given)" observed_result="10.5 µM"
compound=Cc1cccc2c(=O)c3c(sc12)c(NCCN)nc1ccccc13 observed_result="0.966 µM"
compound=COc1ccc(/C=C/C(=O)c2ccc(NC(=O)CSc3nnc(-c4cc(OC)c(OC)c(OC)c4)o3)cc2)cc1 observed_result="2.16 µM"
compound=OCCCNC(=S)Nc1ccc(-c2nc3ccccc3s2)cc1 observed_result="27.1 µM"
compound=COC(=O)/C(Br)=C/c1c[nH]c2ccc(Br)cc12 observed_result="24.1 µM"
compound=C(#Cc1ccccc1C#Cc1ccccn1)c1ccc(OCCCCCCOc2ccc(C#Cc3ccccc3C#Cc3ccccn3)cc2)cc1 observed_result="5.92 µM"
compound=O=C(Nc1ncc(Cc2ccc(Cl)cc2)s1)c1ccc2c(c1)OCCO2 observed_result="5.8 µM"

Data request, read-out GI50, for Clc1cccc(Cc2cn3cc(-c4ccccc4)nc3s2)c1
10.3 µM
